Reported relative viability values for the following compounds.
system: LU99A; assay: relative viability (nuclei count vs DMSO), 5 days (fraction); higher = more cells survive; conditions: first compound 0.6325 µM
value_type: relative viability

compound: Cc1csc(=NC2CCCCC2)n1/N=C/c1ccc(O)c(O)c1O [MIM1] + CC(=O)c1c(C)c2cnc(Nc3ccc(N4CCNCC4)cn3)nc2n(C2CCCC2)c1=O [Palbociclib] (partner 0.5 µM)
reading: 0.405
//
compound: CN1CCN(CCOc2cc(OC3CCOCC3)c3c(Nc4c(Cl)ccc5c4OCO5)ncnc3c2)CC1 [Saracatinib] + COc1cc2c(Oc3ccc(NC(=O)C4(C(=O)Nc5ccc(F)cc5)CC4)cc3F)ccnc2cc1OCCCN1CCOCC1 [Foretinib] (partner 0.25 µM)
reading: 0.831

----------
test system: NCI-H520; test: relative viability (nuclei count vs DMSO), 5 days (fraction); higher = more cells survive; conditions: first compound 2.53 µM
One threshold, 0.8, splits the recorded relative viability values: lower ones are t, equal or higher ones are f.

molecule: Nc1cccc2c1CN(C1CCC(=O)NC1=O)C2=O (stereo not drawn) [Lenalidomide] + Cc1nc(Nc2ncc(C(=O)Nc3c(C)cccc3Cl)s2)cc(N2CCN(CCO)CC2)n1 [Dasatinib] (partner 0.075 µM)
answer_label: t
//
molecule: Nc1cccc2c1CN(C1CCC(=O)NC1=O)C2=O (stereo not drawn) [Lenalidomide] + CS(=O)(=O)N1CCN(Cc2cc3nc(-c4cccc5[nH]ncc45)nc(N4CCOCC4)c3s2)CC1 [Pictilisib] (partner 1 µM)
answer_label: t
//
molecule: Nc1cccc2c1CN(C1CCC(=O)NC1=O)C2=O (stereo not drawn) [Lenalidomide] + CS(=O)(=O)CCNCc1ccc(-c2ccc3ncnc(Nc4ccc(OCc5cccc(F)c5)c(Cl)c4)c3c2)o1 [Lapatinib] (partner 2 µM)
answer_label: f
//
molecule: Nc1cccc2c1CN(C1CCC(=O)NC1=O)C2=O (stereo not drawn) [Lenalidomide] + CC1(C)CCC(c2ccc(Cl)cc2)=C(CN2CCN(c3ccc(C(=O)NS(=O)(=O)c4ccc(N[C@H](CCN5CCOCC5)CSc5ccccc5)c(S(=O)(=O)C(F)(F)F)c4)cc3)CC2)C1 [Navitoclax] (partner 0.5 µM)
answer_label: f
//
molecule: Nc1cccc2c1CN(C1CCC(=O)NC1=O)C2=O (stereo not drawn) [Lenalidomide] + CC(=O)c1c(C)c2cnc(Nc3ccc(N4CCNCC4)cn3)nc2n(C2CCCC2)c1=O [Palbociclib] (partner 0.5 µM)
answer_label: t
//
molecule: Nc1cccc2c1CN(C1CCC(=O)NC1=O)C2=O (stereo not drawn) [Lenalidomide] + Cc1cc(Nc2cc(N3CCN(C)CC3)nc(Sc3ccc(NC(=O)C4CC4)cc3)n2)n[nH]1 [Tozasertib] (partner 0.1 µM)
answer_label: t
//
molecule: Nc1cccc2c1CN(C1CCC(=O)NC1=O)C2=O (stereo not drawn) [Lenalidomide] + CC(=O)Nc1cccc(-n2c(=O)n(C3CC3)c(=O)c3c(Nc4ccc(I)cc4F)n(C)c(=O)c(C)c32)c1 [Trametinib] (partner 0.02 µM)
answer_label: f
//
molecule: Nc1cccc2c1CN(C1CCC(=O)NC1=O)C2=O (stereo not drawn) [Lenalidomide] + O=C(c1cc(Cc2n[nH]c(=O)c3ccccc23)ccc1F)N1CCN(C(=O)C2CC2)CC1 [Olaparib] (partner 8 µM)
answer_label: t

----------
system: NCI-H322M; assay: relative viability (nuclei count vs DMSO), 5 days (fraction); higher = more cells survive; conditions: first compound 0.003162 µM
Listing of entries alongside the reported relative viability.

compound: Cc1cn(-c2cc(NC(=O)c3ccc(C)c(Nc4nccc(-c5cccnc5)n4)c3)cc(C(F)(F)F)c2)cn1 [Nilotinib] + Cc1nc(Nc2ncc(C(=O)Nc3c(C)cccc3Cl)s2)cc(N2CCN(CCO)CC2)n1 [Dasatinib] (partner 0.075 µM)
relative viability: 0.279

compound: Cc1cn(-c2cc(NC(=O)c3ccc(C)c(Nc4nccc(-c5cccnc5)n4)c3)cc(C(F)(F)F)c2)cn1 [Nilotinib] + CC(=O)c1c(C)c2cnc(Nc3ccc(N4CCNCC4)cn3)nc2n(C2CCCC2)c1=O [Palbociclib] (partner 0.5 µM)
relative viability: 0.461

compound: Cc1cn(-c2cc(NC(=O)c3ccc(C)c(Nc4nccc(-c5cccnc5)n4)c3)cc(C(F)(F)F)c2)cn1 [Nilotinib] + Nc1ncn([C@H]2C[C@H](O)[C@@H](CO)O2)c(=O)n1 [Decitabine] (partner 2 µM)
relative viability: 0.786

compound: Cc1cn(-c2cc(NC(=O)c3ccc(C)c(Nc4nccc(-c5cccnc5)n4)c3)cc(C(F)(F)F)c2)cn1 [Nilotinib] + Cc1nc(NC(=O)N2CCC[C@H]2C(N)=O)sc1-c1ccnc(C(C)(C)C(F)(F)F)c1 [Alpelisib] (partner 2 µM)
relative viability: 0.817
